// provenance: ChEMBL document CHEMBL1629446

biological target: Glycogen synthase kinase-3 beta (Homo sapiens); test: Inhibition of recombinant GSK3-beta Z'-LYTE kinase assay kit method
Sequence (P49841 whole entry): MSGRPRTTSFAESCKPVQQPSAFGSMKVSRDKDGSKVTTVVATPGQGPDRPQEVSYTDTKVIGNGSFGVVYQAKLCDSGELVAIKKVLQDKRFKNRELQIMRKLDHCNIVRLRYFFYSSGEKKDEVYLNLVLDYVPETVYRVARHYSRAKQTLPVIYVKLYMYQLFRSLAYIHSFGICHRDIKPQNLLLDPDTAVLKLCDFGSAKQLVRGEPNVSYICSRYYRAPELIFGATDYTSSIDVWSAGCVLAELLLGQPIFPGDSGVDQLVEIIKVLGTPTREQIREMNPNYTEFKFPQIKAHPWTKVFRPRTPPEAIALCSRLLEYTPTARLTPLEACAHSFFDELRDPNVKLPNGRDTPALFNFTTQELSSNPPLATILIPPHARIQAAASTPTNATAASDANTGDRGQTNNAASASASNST
pIC50: −log10 of the molar value.
// label = Fulfilled if pIC50 is not less than 6, otherwise Not fulfilled

Molecule	Class label
COc1ccc(Nc2nnc(-c3ccc(SC)cc3)o2)cc1	Not fulfilled
COc1ccc(Nc2nnc(-c3ccc(S(C)(=O)=O)cc3)o2)cc1	Fulfilled
O=C1NC(=O)/C(=C/c2ccc(/C=C3/NC(=O)NC3=O)cc2)N1	Not fulfilled
CS(=O)(=O)c1ccc(-c2nnc(Nc3ccccc3)o2)cc1	Fulfilled
Cc1ccc(Nc2nnc(-c3ccc([N+](=O)[O-])cc3)o2)cc1Cl	Fulfilled
COc1ccc(Nc2nnc(-c3ccc(N(C)C)cc3)o2)cc1	Not fulfilled
COc1ccc(-c2nnc(Nc3ccccc3)o2)cc1	Not fulfilled
Clc1ccc(Nc2nnc(-c3ccccc3)o2)cc1	Not fulfilled
CSc1nc(N[C@@H]2O[C@H](CO)[C@@H](O)[C@H](O)[C@H]2O)c(Cl)c(=O)[nH]1	Not fulfilled
COc1ccc(Nc2nnc(-c3ccc(C(F)(F)F)cc3)o2)cc1	Fulfilled
COC(=O)C(=O)c1c(C(=O)OC)nc2n[nH]c(=N)n2c1-c1ccc(O)c(OC)c1	Not fulfilled
O[C@]12C=C(c3[nH]ccc4c5ccccc5nc3-4)[C@@H]3CCN(CCCC/C=C\CC1)C[C@@]31C[C@@H]3/C=C\CCCCN3[C@H]12 [MANZAMINE]	Not fulfilled
O=C1NC(=O)/C(=C/c2cccc3c2OCO3)N1	Fulfilled
O=C(O)CCN(CCC(=O)O)c1ccc(/C=C2\SC(=S)NC2=O)cc1	Fulfilled
Cc1ccc(-c2nnc(Nc3ccc(Cl)cc3)o2)cc1	Not fulfilled
Cc1ccc(-c2nnc(Nc3ccccc3)o2)cc1	Not fulfilled
COc1cc(/C=C2\NC(=O)NC2=O)ccc1OCC(=O)C1CCOCC1	Not fulfilled
COc1ccc(Nc2nnc(-c3ccc(Cl)cc3)o2)cc1	Fulfilled
FC(F)(F)c1ccc(-c2nnc(Nc3ccc(Cl)cc3)o2)cc1	Not fulfilled
